Dear all, this message contains IC50 results, target or system Estrogen receptor (Homo sapiens, UniProt Q92731+P03372).
Sequence (Q92731 whole entry): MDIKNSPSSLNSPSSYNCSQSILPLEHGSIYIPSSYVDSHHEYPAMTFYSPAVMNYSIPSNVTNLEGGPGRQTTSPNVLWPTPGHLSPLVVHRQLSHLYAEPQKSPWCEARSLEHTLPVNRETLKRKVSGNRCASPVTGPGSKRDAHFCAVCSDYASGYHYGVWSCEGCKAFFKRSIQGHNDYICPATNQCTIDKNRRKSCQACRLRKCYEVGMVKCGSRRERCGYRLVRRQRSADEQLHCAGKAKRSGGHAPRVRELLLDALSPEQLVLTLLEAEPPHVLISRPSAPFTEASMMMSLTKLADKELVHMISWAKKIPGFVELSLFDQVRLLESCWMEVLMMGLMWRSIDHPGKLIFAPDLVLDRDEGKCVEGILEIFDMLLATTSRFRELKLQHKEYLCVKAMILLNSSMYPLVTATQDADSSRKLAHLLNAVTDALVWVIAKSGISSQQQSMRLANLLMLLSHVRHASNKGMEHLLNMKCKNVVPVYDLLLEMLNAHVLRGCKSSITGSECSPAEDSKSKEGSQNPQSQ
Give the quantity in nM, number only.

compound="O=C(c1ccc(OCCN2CCCCC2)cc1)N1c2ccc(O)cc2CCC1c1cccc(O)c1 (centres undefined)" endpoint_result=590
compound="O=C(c1ccc(OCCN2CCCCC2)cc1)N1c2ccc(O)cc2CCC1c1ccc(O)cc1 (centres undefined)" endpoint_result=990
compound="Oc1ccc2c(c1)CCC(c1ccccc1)N2Cc1ccc(OCCN2CCCCC2)cc1 (centres undefined)" endpoint_result=490

Now look at this entry.
Summary line: Oc1ccc(C2CCc3cc(O)ccc3N2Cc2ccc(OCCN3CCCC3)cc2)cc1 (centres undefined) , Estrogen receptor (Homo sapiens, UniProt Q92731+P03372), reported IC50 = 68

###

molecular target: UniProt:Q92731
test_readout: pKi
Remember, pKi is on a log scale: it is -log10 of the molar concentration.

So the reported pKi for Oc1ccc(C2CCc3cc(O)ccc3N2)cc1 (configuration not stated) , on UniProt:Q92731, turned out to be 7.19

###

Target: UniProtKB P03372
Sequence (P03372 whole entry): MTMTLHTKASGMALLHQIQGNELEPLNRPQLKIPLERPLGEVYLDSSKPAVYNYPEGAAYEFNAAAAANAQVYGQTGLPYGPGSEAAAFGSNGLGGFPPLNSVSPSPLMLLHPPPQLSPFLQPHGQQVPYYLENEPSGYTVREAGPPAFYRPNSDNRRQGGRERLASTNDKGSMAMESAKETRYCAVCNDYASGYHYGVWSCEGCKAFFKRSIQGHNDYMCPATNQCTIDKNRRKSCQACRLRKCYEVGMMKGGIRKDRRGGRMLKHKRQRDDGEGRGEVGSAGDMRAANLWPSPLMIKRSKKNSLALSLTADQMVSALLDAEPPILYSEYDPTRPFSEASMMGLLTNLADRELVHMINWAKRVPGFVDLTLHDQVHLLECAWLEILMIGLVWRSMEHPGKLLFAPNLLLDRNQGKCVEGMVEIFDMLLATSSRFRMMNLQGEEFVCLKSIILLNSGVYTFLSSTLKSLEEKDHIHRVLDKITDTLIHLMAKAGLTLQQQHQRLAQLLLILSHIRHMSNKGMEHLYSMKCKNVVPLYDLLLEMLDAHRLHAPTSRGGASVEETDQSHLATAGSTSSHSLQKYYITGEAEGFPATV
test_readout: Ki (nM)
Expressed in nM, but write only the number.

Item: Oc1ccc(C2CCc3cc(O)ccc3N2)cc1 (stereo unspecified) | Ki: 170

Numbers sourced from ChEMBL document CHEMBL1136521.
